Here, each record is paired with measured AUC of viability dose-response curve data.
Tested on: SEM cells
Procedure summary: AUC of viability dose-response curve (% viability x log10 dose units); higher = less sensitive
Cond: RPMI 5 mM glucose + 10% dialyzed FBS; 48 h
Keep it simple and answer with nothing but the number.

| Compound | System under test | AUC of viability dose-response curve |
| --- | --- | --- |
| CC1(C)O[C@H]2CC(=O)OC[C@]23[C@H]2CC[C@@]4(C)[C@H](c5ccoc5)OC(=O)[C@H]5O[C@]54[C@]2(C)C(=O)C[C@@H]13 | SEM cells | 438 |
| Cl.Cl.Fc1ccc(C(OCCN2CCN(CCCc3ccccc3)CC2)c2ccc(F)cc2)cc1 | SEM cells | 458 |
| CC(Oc1ccc(O)cc1)(P(=O)(O)O)P(=O)(O)O | SEM cells | 421 |
| CN[C@@H]1CN(C[C@H]1OC)C2=NC3=C(C=C2)C(=O)C(=C\N3C4=NC=CS4)/C(O)=O | SEM cells | 363 |

Input: Which AUC of viability dose-response curve value belongs to C[C@@H]1CN(CC(=O)N2CC(C)(C)c3ncc(Cc4ccc(F)cc4)cc32)[C@@H](CN2CCOC[C@H]2C)CN1 ?
Output: 465

Input: Given CC1(C)CC(=O)c2c(C(F)(F)F)nn(-c3ccc(C(N)=O)c(NC4CCC(OC(=O)CN)CC4)c3)c2C1 (stereo not drawn) , state its recorded AUC of viability dose-response curve.
Output: 276

Input: # get_value(readout='AUC of viability dose-response curve', item= Cn1cc(-c2ccc3ncc(Cc4ccc5ncccc5c4)n3n2)cn1 )
Output: 450

Input: # lookup: AUC of viability dose-response curve of CC1=CC2=C(O1)C(=C3OC(=O)\C=C(C)/C3=C2)C
Output: 447

Hello, the source for this data is the supplement of paper PMC11451515, in case you need it.
